Origin of measurements: the supplement of paper PMC9170038

- System: MS2 coat protein
- protocol_description: apparent KD of MS2 coat protein; designed switch direction (-1 OFF switch, 1 ON switch): 1; higher = weaker reporter binding
- condition_context: input ligand: FMN 200 uM
Overview of reported apparent KD of MS2 coat protein across a group of sequences:

# seq, system_under_test, unit_info, apparent KD of MS2 coat protein
records = [
    ("GCUCGAAUCAAAACCAACAUGAGGAUCACCCAUGUAUGUUGGUAGGAUAUCGUUUGUAAAACAAACGAGAAGGGCCAAACGAGC [SameState NG3 #4] (Eterna round: R96, puzzle: Same State NG 3)", "MS2 coat protein", "nM", 53),
    ("AGCUAUUAAUCAGGAUAUAGUGACAUGAGGAUCACCCAUGUAUUAAUGAUGAAAUGUGGUCGCCGCUAGAAGGGAUUACUAACA [SameState NG2 #44] (Eterna round: R96, puzzle: Same State NG 2)", "MS2 coat protein", "nM", 67.1),
    ("GUUACAUGAGGAUCACCCAUGUAUGUGUGGGAGUAAGUGUCUUAGGAUAUCUAUUAUUUAAGUUAAGAGAAGGAAGAUUGUUGU [JMF's solution 23] (Eterna round: R96, puzzle: Same State NG 3)", "MS2 coat protein", "nM", 121),
    ("GUAGCAUACCGAGGAUAUUCAUAACAUGAGGAUCACCCAUGUUAGGCCAGCAUUAGCUGGCCUUGGGAGAAGGCGGAAUGCUAC [Xeonanis - 20 Mod52] (Eterna round: R96, puzzle: Same State NG 2)", "MS2 coat protein", "nM", 17.5),
    ("AUUACGAGCGUAGGAUAUGGGAAAGGAAGUGUACCAGAAGGACGAAUACAGCGUCCGGACAUGAGGAUCACCCAUGUAGGACGC [PowerStrip SSNG 1.19] (Eterna round: R96, puzzle: Same State NG 1)", "MS2 coat protein", "nM", 11.5),
    ("UAAAGAUCGCGAGGAUAUCGCGAGGAUCACCCGUGAGAAGGCGCAGAGCCGAGGAUCACCCGGCUGAUCCUGAGGAGGAGGUCU (Eterna round: R96, puzzle: Same State NG 1)", "MS2 coat protein", "nM", 124),
    ("UGGUACAUGGGAGGAUAUGGAGUUGAGACAUGAGGAUCACCCAUGUUAUAAAAGCCGAGAGGCAACUAGAAGGCCCAUGUACCU [JL SSNG1 3.92] (Eterna round: R96, puzzle: Same State NG 2)", "MS2 coat protein", "nM", 10.2),
    ("GCUAGGAAAUAAGCCAACAUGAGGAUCACCCAUGUAUGUUGGUAGGAUAUCGUUUGCAAAGCAAACGAGAAGGGCUAACCUAGC [Mat - Same State NG 3 - JL Mod - D70] (Eterna round: R96, puzzle: Same State NG 3)", "MS2 coat protein", "nM", 72.2),
    ("AGUGGAGCCUGAGCUCCACAAAAGCAUGUACAUGAGGAUCACCCAUGUCAUGUACAAGCUUUUUGCUCGUCUUAAAA [Mat - hsa-mir-208a - Mod of JL - D18] (Eterna round: R96, puzzle: Sensor for hsa-mir-208a)", "MS2 coat protein", "nM", 552),
]

* * *

- Test system: MS2 coat protein
- protocol_description: apparent KD of MS2 coat protein; designed switch direction (-1 OFF switch, 1 ON switch): -1; higher = weaker reporter binding
- condition_context: input ligand: FMN 200 uM

# seq, unit_info, apparent KD of MS2 coat protein
rows = [
    ("GGUGUUGAAGGAUAUACAUGAGGAUCACCCAUGUACCGCUCGGACAAGAUAUCAUUCAGUAGAAGGUCGGACCG [Eternabot (L2) Solution 11] (Eterna round: R97, puzzle: Exclusion 3)", "nM", 66.5),
    ("ACAUGAGGAUCACCCAUGUAAACAUAAUGGCUGAUGUAGAGUCAGGAUAUGCGUGGCUAACAAUCGCAGAAGGGACAAGACUGG [Deportation 30 - Jieux - Exclusion NG 3] (Eterna round: R96, puzzle: Exclusion NG 3)", "nM", 22.2),
    ("CUUUUGUCAGGAUAUCGUGCAUACAACGAAAGUUCUAUGUGCGAGAAGGGACAUGAGGAUCACCCAUGUUACGG [Omei Ex4 A6] (Eterna round: R97, puzzle: Exclusion 4)", "nM", 175),
    ("ACAAGCUUUUAGAUUUUCAACAUGAGGAUCACCCAUGUUCGUCUUAGGCGAGUGCGAGUGCGGUGUACUCGUAUUAG [JL TOV1 3.85 sellena mod] (Eterna round: R97, puzzle: Sensor, turn-off variant 1)", "nM", 22.2),
    ("CCGACGUGAGGAUAUUAGAACGAGCAGACCUGAGCUCGUUCUGAGAAGGCACAUGAGGAUCACCCAUGUGAGAA [Eternabot (Original) Solution 50] (Eterna round: R97, puzzle: Exclusion 4)", "nM", 352),
]

* * *

- System: MS2 coat protein
- protocol_description: apparent KD of MS2 coat protein; higher = weaker reporter binding
- condition_context: Eterna round: R107; input ligand: theophylline 2 mM
Label T when apparent KD of MS2 coat protein is at or above 30 nM; anything below gets F.

# seq, label_value
measured = [
    ("CGCCGCGGGAGAAGGAGCGCGAUAACAUAACAUGAGGAUCACCCAUGUAAGAAAUUAAUCAUGCAGGUAGGUCGCUCCCGCGGCG [Same State Arginine B GF 4]", "F"),
    ("AUUCAUAACUGAAGGAGCGUGAUAUAAAUUUUUACAUGAGGAUCACCCAUGUUUCAUCGAUCACAGGUAGGUCGCAGAUUCUCAU [JR_SSArginiB_Sub012]", "T"),
    ("UACAGCAGUACGGCCGCCACUCUAAGAUUGCGCGUUUAGGCCAUACAUGAGGAUCACCCAUGUCCGAGGACCGGGUACAGGAAUU [theeternabot_sameState_MS2_Trp_B_29]", "T"),
    ("GCUAGGUCAUCGGCCGCCACUAACGAUGGCUCCGACAUGAGGAUCACCCAUGUGCCACUUGCGCAUAGGACCGGGAUGACCUAGC [SSTB NP+V+V2 #1]", "F"),
    ("ACAUGAGGAUCACCCAUGUGAAGCAGGGUACGAGGACCGGUACGGCCGCCACUCGAGCAUUAUACCGAGUGAAUGGCAACGAUGU [whbob_Ex_trypto A_2s17]", "F"),
]

* * *

Each item that follows carries a reported apparent KD of MS2 coat protein.
- Tested on: MS2 coat protein
- protocol_description: apparent KD of MS2 coat protein; higher = weaker reporter binding
- condition_context: Eterna round: R107; input ligand: arginine 13.2 mM

# seq, apparent KD of MS2 coat protein
rows = [
    ("GUGCCGCAUUCACAUGAGGAUCACCCAUGUCGAGGACCGGUACGGCCGCCACUCGACGUGCUUACAGGUCCUUUAAGGCCCAAUA [Usislaan]", "79 nM"),
    ("AGCGAGAUCCGUGAUACCAGCUACAUGAGGAUCACCCAUGUGAGCGCGAAAGUGCUGUGUAGCCCUUGGCAGCACAGUGGAUCUC [#29 Exclusion-TheophyllineB]", "8.84 nM"),
    ("GGCACCAGGAGAAGGAGCGUGAAGACAUGAGGAUCACCCAUGUAGAGGCGCCGACGGCGUUCGCAGGUAGGUCGCUCCUGGUGCC [#1 Same State - Arginine B Attempt #16 (HarryS)]", "20.9 nM"),
    ("UAUCCACAUGAGGAUCACCCAUGUUAGGAAGGAGCGGUGAAUGAACCAGGUAGGUCGCCUAGGUGAGGAUCAUCUAUGGAUUCGU [Exclusion - Arginine A (Freestyle 11)]", "30 nM"),
    ("ACAUGAGGAUCACCCAUGUAAUCAUCAGAAGGAGCGUGGAAUAACACAGGUAGGUCGCUGAUGUUAUGUUAAAAUGGUUCGUGAA [JR_ExcArginiA_Sub002]", "18.8 nM"),
]

* * *

- Tested on: MS2 coat protein
- protocol_description: apparent KD of MS2 coat protein, switch OFF state (with FMN for OFF switches, without FMN for ON switches); designed switch direction (-1 OFF switch, 1 ON switch): -1; higher = weaker reporter binding
- condition_context: FMN input: 0 or 200 uM; Eterna round: R93 (includes R88 designs)
observed_property: apparent KD of MS2 coat protein

# seq, value
measured = [
    ("AAGGGACAUGAGGAUCACCCAUGUAAGGAUAUCGGAAAAGGAAAAAAAAAAAAUAAGACGAGAAGGUACAAAAA [Mat - Exclusion 1 - Eli mod - D80]", "73.5 nM"),
    ("CAGUACUGAGGAUAUACAUGAGGAUCACCCAUGUAUCCAAGCUAGGAAACUAGCACAUGUAGAAGGCAGUACUG [Ex3: 822]", "34.5 nM"),
    ("AGGAGACAUGAGGAUCACCCAUGUUAGGAUAUGAACGAAAAUAAAUAAAAAUAAAAGUUCAGAAGGAACGAAAA [66%, Wbt, 9]", "45.2 nM"),
    ("AGAGGACAUGAGGAUCACCCAUGUGAGGAUAUGCAAAACUAAGGACAAGAUCGGUAUAGCAGAAGGCACGUAGU [JR_EXc001_Sub808]", "78.2 nM"),
    ("AAGAAGUCAGGAUAUACAUGAGGAUCACCCAUGUAAAAGAAAGAAGGGAAAGAGAAAAGUAGAAGGGACAAGAA [Usermaatre-setpenamun Takelot III]", "19.9 nM"),
    ("AUAAAGUGAGGAUAUGUAAAAAUAACGAAAGUUAUAAAUAAACAGAAGGCACAUGAGGAUCACCCAUGUGAAAU [Meechl MS2 EX4 62% 2]", "22.5 nM"),
    ("AACAGUACAGGAUAUACAUGAGGAUCACCCAUGUGAAAAUUAAGUGGAAAACCACAAGGUAGAAGGGUACUGGA [Mat - Exclusion 3 - Eli mod - D63]", "78.7 nM"),
    ("AAAAGACAUGAGGAUCACCCAUGUUAGGAUAUGGAAAAACAAAAAAAAAAAAAAAAAACCAGAAGGAGCGAGGG [another 1 four]", "132 nM"),
    ("CUUAUGUCAGGAUAUCAGUAGUAAAAAAAUAAAAUUACUACUGAGAAGGGACAUGAGGAUCACCCAUGUCAAAA [EX4 365: Super Stable 65]", "97.2 nM"),
    ("AAGAAUGGAGGAUAUACAUGAGGAUCACCCAUGUAAAAGAAAGAGGGAAAAGAGAAAAGUAGAAGGCCAAAGAA [Ptolemy VII Neos Philopator]", "34.4 nM"),
    ("AGUUGGCGAGGAUAUACAUGAGGAUCACCCAUGUGAAAUAAAUAAAAAAUAAAAGGGAGUAGAAGGCGCUGACA [73%, Moding Norbert Elias, 17]", "82.3 nM"),
    ("AAAAAACAUGAGGAUCACCCAUGUGAGGAUAUCCAAAACAAAAAAAAACAAAACAAAAGGAGAAGGCACAUAAA [Amethyst 54]", "43.1 nM"),
    ("AAAAGACAUGAGGAUCACCCAUGUGAGGAUAUGCGAAAAAAAAAAAUAAAAAAAAAAAGUAGAAGGCACACCAA [Mat - Exclusion 1 - Eli mod - D56]", "248 nM"),
    ("AAAAAACAUGAGGAUCACCCAUGUGAGGAUAUUCAAAAAAAAAAAAAAAACACAAGAAGGAGAAGGCACAAAAA [Default title]", "73 nM"),
    ("AAAAAGGUAGGAUAUACGAAAAAAAAGGGUAGAAAAAAAACACAUGAGGAUCACCCAUGUAGAAGGACCAAAAA [Ex 2 sub 1]", "77.4 nM"),
    ("AAAAAACAUGAGGAUCACCCAUGUCAGGAUAUCUGGAGAAACGGAAAGAAAAAGAAACGGAGAAGGGACAUAAA [Starryjess mod]", "28.5 nM"),
    ("AAAAAGUGAGGAUAUGUCAAAAGUCACAAAAGUGACAAAAGACAGAAGGCACAUGAGGAUCACCCAUGUGAAAA [Mod of Eli - Late G + early G segment 3]", "38.8 nM"),
    ("AAGAACUGAGGAUAUACAAAAGAAAAGAAAAGAAAGAAAGAACAUGAGGAUCACCCAUGUAGAAGGCGGAAGAA [Khahotepre Sobekhotep VI]", "14.7 nM"),
    ("UAAAAACAUGAGGAUCACCCAUGUGAGGAUAUGUGAAAAAAAAAAAAAAAAAAAACAAGCAGAAGGCACAAAAA [JR_Exc001_Sub020]", "584 nM"),
    ("GAAAAACAUGAGGAUCACCCAUGUCAGGAUAUCCAAAUAAAAAUAAAAUAAAAUAAAAGGAGAAGGGACAAAAG [Mat - Same state - Mayanna Mod - D101]", "40 nM"),
    ("AAACGUUGAGGAUAUACAGAAGGGUAUAAAUCAUAAAAAACACAUGAGGAUCACCCAUGUAGAAGGCAACGAAA", "46.8 nM"),
    ("AAGAAACAUGAGGAUCACCCAUGUCAGGAUAUGUAAAAGAAAAGAAAAGAAAGAAGAAACAGAAGGGACAAAGG [Neferkaure]", "126 nM"),
    ("AAAAAGUCAGGAUAUCGGAAAAAAAAAAAAAAAAAAAAAAACGAGAAGGGACAUGAGGAUCACCCAUGUAUGAC [Ex 4 May 7]", "243 nM"),
    ("CUCUAGUGAGGAUAUACAAGAAAAGAAAAGAAAGAAAAGAAGUAGAAGGCACAUGAGGAUCACCCAUGUAAGAA [EteRNA is fun!]", "30.2 nM"),
    ("GGAAAGCGAGGAUAUACAUGAGGAUCACCCAUGUUAACAAACAAACAAACAAACAAAAGUAGAAGGCGCAAAAU [Exclusion 3 This and That]", "41.1 nM"),
]
